Biological target: Ribonuclease H1 (Homo sapiens) (UniProt O60930)
Sequence (O60930 whole entry, looked up): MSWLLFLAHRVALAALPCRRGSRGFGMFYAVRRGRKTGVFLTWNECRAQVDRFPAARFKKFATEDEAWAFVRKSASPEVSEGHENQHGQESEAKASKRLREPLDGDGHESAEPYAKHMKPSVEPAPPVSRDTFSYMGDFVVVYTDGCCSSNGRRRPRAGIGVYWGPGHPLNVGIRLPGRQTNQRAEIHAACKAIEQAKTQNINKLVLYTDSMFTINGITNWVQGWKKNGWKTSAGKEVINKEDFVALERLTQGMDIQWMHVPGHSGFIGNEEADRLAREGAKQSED
Test: inhibition of human ribonuclease H1 activity – biochemical, FRET RNA/DNA duplex cleavage, dose response (AID 366);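 also: potency is for inhibitors that lower RNA cleavage and so lower fluorescence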
Conditions: human RNase H1, FRET RNA/DNA duplex cleavage, fluorescence
Active and inactive are the calls of the source. No rule for the calls is given here.
Use one of these outcomes when replying: active, inactive

- COc1cccc(-c2nc3cc(NC(=O)/C=C\c4ccccc4)ccc3o2)c1: active
- O=C1C(Cl)=C(Nc2ccc(S(=O)(=O)Nc3ccccn3)cc2)C(=O)c2ccccc21: inactive
- Cc1c(O)c(Br)c(C)c(O)c1Br (tested in a mixture with another compound): inactive
- Cc1ccc(C)n1-c1ccc(O)c(C(=O)O)c1: active
- CC(=O)O[C@H](C)[C@@H]1C2=C(C(=O)C[C@]1(C)O)C(=O)c1c(ccc(-c3ccc4c(c3O)C(=O)C3=C(C4=O)[C@@H]([C@@H](C)OC(C)=O)[C@@](C)(O)CC3=O)c1O)C2=O: active
- COC(=O)c1c(N)sc(C(=O)Nc2ccc(OC)cc2)c1C: inactive

Task: Record request — test call for C=CC(C)(C)C12CC3C(=O)N/C(=C\c4cnc[nH]4)C(=O)N3C1Nc1ccccc12 (centres undefined)
Result: inactive

Task: Outcome logged for Cc1sc(NC(=O)c2cccc([N+](=O)[O-])c2)c(C(N)=O)c1C in this assay:
Result: active

Task: What did the test return for O=C1CC(=O)c2ccc3c4c(ccc1c24)C(=O)CC3=O ?
Result: active

----------
Target: Ribonuclease H1 (Homo sapiens) (UniProt O60930)
Test: inhibition of human ribonuclease H1 activity – biochemical, FRET RNA/DNA duplex cleavage, dose response (AID 366);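 also: potency is for inhibitors that lower RNA cleavage and so lower fluorescence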
Settings: human RNase H1, FRET RNA/DNA duplex cleavage, fluorescence
Active and inactive are the calls of the source. No rule for the calls is given here.
Pick one and only one: active, inactive

• Oc1cc(O)c2cc(O)c(-c3ccc(O)c(O)c3)[o+]c2c1 = active
• COc1ccc(-c2nc3sc(-c4ccc(OC)cc4)nc3s2)cc1 = inactive
• O=C1NC(=S)N(c2ccc(Cl)cc2)C(=O)/C1=C/c1ccco1 = inactive
• Cc1cc(Br)ccc1N1C(=O)/C(=C/c2ccco2)C(=O)NC1=S = active
• Cc1cc(C(=O)O)ccc1-n1c(C)ccc1C = inactive
• COc1cc([C@@H]2c3cc4c(cc3C[C@H]3COC(=O)[C@@H]32)OCO4)cc(OC)c1O = active

Task: What did the test return for O=C1NC(=S)N(c2ccccc2F)C(=O)/C1=C/c1ccc(I)o1 ?
Result: active

Task: So what was the verdict on COc1ccc(C2COc3cc(O)c(O)cc3C2)cc1 (stereo unspecified) in this test?
Result: active

Task: Could you please tell me the result logged for O=C1c2ccc(O)cc2C(=O)c2c1ccc(O)c2O in this assay?
Result: active

Task: Please state the recorded outcome for this compound: O=C(O)C1CCCCC1c1c2ccc(=O)c(O)c-2oc2c(O)c(O)ccc12 (stereo unspecified)
Result: active

Task: What is the recorded call for this compound in the test? Cc1ccccc1-n1c(O)c(C=C2C=CC=N2)c(=O)[nH]c1=S
Result: active

----------
Target: Ribonuclease H1 (Homo sapiens)
Experiment: inhibition of human ribonuclease H1 activity – biochemical, FRET RNA/DNA duplex cleavage, dose response (AID 366);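 also: potency is for inhibitors that lower RNA cleavage and so lower fluorescence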
Conditions: human RNase H1, FRET RNA/DNA duplex cleavage, fluorescence
Activity calls are given as the source filed them. How the calls were made is not given here.
parameter measured: IC50

A selection of reference data follows.
- Cc1sc2nc(-c3ccc([N+](=O)[O-])cc3)[nH]c(=O)c2c1C: 900 nM
- CC1=C(C)CC(C(=O)Nc2ccc(N3C(=O)c4ccccc4C3=O)cc2)C(C(=O)O)C1 (centres undefined): inactive
- CC1=C(CCC(=O)O)c2cc3nc(cc4[nH]c(cc5[nH]c(cc1n2)c(C)c5C(C)O)c(C)c4C(C)O)C(C)=C3CCC(=O)O (centres undefined): 400 nM
- O=C(O)c1cc(-c2ccc(/C=C3/Sc4ccccc4C3=O)o2)ccc1O: 400 nM
- O=C(O)CCc1c2ccc(=O)c(O)c-2oc2c(O)c(O)ccc12: 70 nM
- O=C(Nc1ccc(N2CCN(C(=O)c3ccccc3)CC2)cc1)c1ccc(-c2ccccc2)cc1: 350 nM
- O=C(CSc1nc2ccccc2s1)c1sc2sc3ccccc3[n+]2c1[O-]: 300 nM
- Oc1cc(CN2COc3ccccc32)c(O)cc1CNC1CCCCC1: inactive

Task: Quick one: IC50 of Cc1ccc(S(=O)(=O)/N=C2\C=C(Sc3ncn[nH]3)C(=O)c3ccccc32)cc1 ?
Result: 9200 nM

Just for reference, PubChem BioAssay AID366 is where these values come from.
